Entry source: patent US5098923A

Measured target: human aromatase (Homo sapiens, UniProt P11511)
Construct: The enzyme preparation was used without further purification; from tissue; host or cells: human placenta, microsomal fraction (100000×g precipitate)
Sequence (P11511 whole entry): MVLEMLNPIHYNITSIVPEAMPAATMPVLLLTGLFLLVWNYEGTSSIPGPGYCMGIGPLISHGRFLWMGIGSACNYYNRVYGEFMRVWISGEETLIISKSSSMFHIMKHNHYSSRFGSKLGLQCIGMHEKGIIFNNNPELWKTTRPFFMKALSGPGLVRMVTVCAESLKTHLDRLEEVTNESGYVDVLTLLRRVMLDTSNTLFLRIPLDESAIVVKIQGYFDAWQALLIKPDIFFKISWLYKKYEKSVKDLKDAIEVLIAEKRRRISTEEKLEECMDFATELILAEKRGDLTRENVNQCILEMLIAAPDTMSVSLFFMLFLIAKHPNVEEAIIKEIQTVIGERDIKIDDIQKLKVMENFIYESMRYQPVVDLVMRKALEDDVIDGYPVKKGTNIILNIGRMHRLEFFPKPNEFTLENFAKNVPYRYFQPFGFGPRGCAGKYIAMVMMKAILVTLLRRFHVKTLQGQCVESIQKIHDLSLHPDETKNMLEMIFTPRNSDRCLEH
Assay protocol: In vitro inhibition of human placental aromatase (3H2O release from 1,2[3H]-androstene-3,17-dione)
Assay type: biochemical
Run conditions: read-out: AROMATASE IC-50
Consider the following compounds and their measured IC50 readings.
# number only, unit µM dropped from output

Illustrative cases are given below, each with its answer.
• OC(CCc1c[nH]cn1)(c1ccccc1)c1ccccc1 = 70
• c1ccc(Cn2cncc2CCC(c2ccccc2)c2ccccc2)cc1 = 4

With those in mind, consider the next compound.
Query: Form entry - test system: human aromatase (Homo sapiens, UniProt P11511); read-out: IC50; compound: Cc1cccc(C(CCc2c[nH]cn2)c2cccc(C)c2C)c1C
Reply: 44
